Consider the following compounds and their measured EC50 readings.
System: human FXR (Homo sapiens, UniProt Q96RI1)
Sequence (Q96RI1 262-486 limits assumed): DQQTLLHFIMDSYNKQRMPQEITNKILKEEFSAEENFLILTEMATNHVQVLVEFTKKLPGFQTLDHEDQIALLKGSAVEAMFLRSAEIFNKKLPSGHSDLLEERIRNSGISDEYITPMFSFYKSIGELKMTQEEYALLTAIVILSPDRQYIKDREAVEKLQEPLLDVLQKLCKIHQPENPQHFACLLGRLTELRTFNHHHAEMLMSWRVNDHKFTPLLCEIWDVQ
Measurement Description: transient human FXR/Gal4-luciferase reporter assay (HLE GAL-FXR)
Condition: FXR EC50 (nM), Gal4-hFXR fusion reporter, HEK293 cells; Table 1
Report as a plain number; the unit nM is understood.

* O=C(O)c1ccn2nc(N3CCC(/C=C/c4c(-c5c(Cl)cccc5Cl)noc4C4CC4)CC3)ncc12 [Example 29] | 60

For this compound ( CCn1cc(C(=O)O)c(=O)c2ccc(N3CC4C(/C=C/c5c(-c6ccccc6C(F)(F)F)noc5C5CC5)C4C3)cc21 (stereo not shown) [Example 192] ), measured EC50 is 132

For this compound ( O=C(O)c1ccc(-c2ccc(N3CC(/C=C/c4c(-c5ccccc5C(F)(F)F)noc4C4CC4)C3)cc2)cc1 [Example 205] ), measured EC50 is 189

For this compound ( O=C(O)c1cc(OC(F)F)c2cc(N3CCC(/C=C/c4c(-c5c(Cl)cncc5Cl)noc4C4CC4)CC3)ccc2n1 [Example 92] ), measured EC50 is 3

For this compound ( O=C(O)c1ccc2nc(N3CC4C(/C=C/c5c(-c6c(Cl)cccc6Cl)noc5C5CC5)C4C3)sc2n1 (stereo not shown) [Example 81] ), measured EC50 is 89

For this compound ( O=C(O)C1(c2ccc(N3CCC(/C=C/c4c(-c5c(Cl)cccc5Cl)noc4C4CC4)CC3)cc2)CC1 [Example 59] ), measured EC50 is 214

For this compound ( Cn1cc(C(=O)O)c2cnc(N3CCC(/C=C/c4c(-c5c(Cl)cccc5Cl)noc4C4CC4)CC3)nc21 [Example 19] ), measured EC50 is 194

----------
System: human FXR (Homo sapiens, UniProt Q96RI1)
Measurement Description: transient human FXR/Gal4-luciferase reporter assay (HLE GAL-FXR)
Condition: FXR EC50 (nM), Gal4-hFXR fusion reporter, HEK293 cells; Table 1
Measured Attribute: EC50 (nM)
Report as a plain number; the unit nM is understood.

# example entries with known answers
* O=C(O)c1cnc2ccc(N3CC4C(/C=C/c5c(-c6ccccc6C(F)(F)F)noc5C5CC5)C4C3)cc2n1 (stereo not shown) | 2470
* CCOc1cc(N2CC3C(/C=C/c4c(-c5ccccc5C(F)(F)F)noc4C4CC4)C3C2)cnc1C(N)=O (stereo not shown) | 555

For this compound ( Cn1c(C(=O)O)cc2ccc(N3CCC(/C=C/c4c(-c5c(Cl)cccc5Cl)noc4C4CC4)CC3)cc21 ), measured EC50 is 25

For this compound ( O=C(O)c1c2ccc(N3CC4C(/C=C/c5c(-c6c(Cl)cccc6Cl)noc5C5CC5)C4C3)cc2nn1CC1CC1 (stereo not shown) ), measured EC50 is 21

For this compound ( Cn1nc(C(=O)O)c2ccc(N3CCC(/C=C/c4c(-c5c(Cl)cccc5Cl)noc4C4CC4)CC3)cc21 ), measured EC50 is 236

For this compound ( O=C(O)c1cc(OC2CCC2)c2cc(N3CC(/C=C/c4c(-c5cccnc5C(F)(F)F)noc4C4CC4)C3)ccc2n1 ), measured EC50 is 50

For this compound ( COc1cc(C(=O)O)nc2ccc(N3CC4C(/C=C/c5c(-c6c(Cl)cncc6Cl)noc5C5CC5)C4C3)cc12 (stereo not shown) ), measured EC50 is 38
